tested on: HIV-1 IIIB; assay: Western blot of p24 and p55 after treatment of HIV-1 IIIB infected MT-2 cells; type: cell-based; settings: anti-p24 mAb, graded concentrations, vs positive untreated control
Where a SMILES comes first, the peptide text is derived from it. Bridges are numbered along the chain shown (N, C = ends). [ ]: non-standard residue; d: D form. S5 = C=CCCC[C@](C)(N)C(=O)O
property-label: p24 and p55 levels in the cellular preparation

>  <molecule>
CC[C@H](C)[C@H](N)C(=O)N[C@H](C(=O)N[C@@H](Cc1ccccc1)C(=O)N[C@@]1(C)CCC/C=C\CCC[C@@](C)(C(=O)N[C@@H](Cc2ccc(O)cc2)C(=O)N[C@@H](Cc2ccc(O)cc2)C(=O)NCC(=O)N[C@@H](CCC(=O)O)C(=O)N[C@@H](CCCCN)C(N)=O)NC(=O)[C@H](CC(C)C)NC(=O)[C@H]([C@@H](C)CC)NC(=O)[C@H](CC(=O)O)NC1=O)[C@@H](C)O [NYAD-23] (H-ITF[S5]DIL[S5]YYGEK-NH2; staple (Z) 4-8; N-terminus and C-terminus assumed)

>  <tested-target>
HIV-1 IIIB

>  <result>
dose-dependent decrease

$$$$
>  <molecule>
CC[C@H](C)[C@H](N)C(=O)N[C@@H](CO)C(=O)N[C@@H](Cc1ccccc1)C(=O)N[C@@]1(C)CCC/C=C\CCC[C@@](C)(C(=O)N[C@@H](Cc2ccc(O)cc2)C(=O)N[C@@H](Cc2ccc(O)cc2)C(=O)NCC(=O)N[C@@H](CCC(=O)O)C(=O)N[C@@H](CO)C(=O)NCC(=O)N[C@@H](CO)C(N)=O)NC(=O)[C@H](CC(C)C)NC(=O)[C@H]([C@@H](C)CC)NC(=O)[C@H](CCC(=O)O)NC1=O [NYAD-37] (H-ISF[S5]EIL[S5]YYGESGS-NH2; staple (Z) 4-8; N-terminus and C-terminus assumed)

>  <tested-target>
HIV-1 IIIB

>  <result>
dose-dependent decrease

$$$$

###

tested on: HIV-1 IIIB; type: cell-based
Where a SMILES comes first, the peptide text is derived from it. Bridges are numbered along the chain shown (N, C = ends). [ ]: non-standard residue; d: D form. R8 = C=CCCCCCC[C@@](C)(N)C(=O)O; S5 = C=CCCC[C@](C)(N)C(=O)O
Field: IC50. Provide a value for each of the compounds that follow.

Exercise: What does the data say about its IC50? Entry: CC[C@H](C)[C@H](N)C(=O)N[C@@H](CO)C(=O)N[C@@H](Cc1ccccc1)C(=O)N[C@@]1(C)CCC/C=C\CCC[C@@](C)(C(=O)N[C@@H](Cc2ccc(O)cc2)C(=O)N[C@@H](Cc2ccc(O)cc2)C(=O)NCC(=O)N[C@@H](CCC(=O)O)C(=O)N[C@@H](CCCCN)C(N)=O)NC(=O)[C@H](CC(C)C)NC(=O)[C@H](CC(C)C)NC(=O)[C@H](CCC(=O)O)NC1=O [NYAD-24] (H-ISF[S5]ELL[S5]YYGEK-NH2; staple (Z) 4-8; N-terminus and C-terminus assumed)
Key: 13.8 µM

Exercise: What does the data say about its IC50? Entry: CC[C@H](C)[C@H](N)C(=O)N[C@@H](CO)C(=O)N[C@@H](Cc1ccccc1)C(=O)N[C@@]1(C)CCC/C=C\CCC[C@@](C)(C(=O)N[C@@H](Cc2ccc(O)cc2)C(=O)N[C@@H](Cc2ccc(O)cc2)C(=O)NCC(=O)N[C@@H](CCCNC(=N)N)C(=O)N[C@@H](CO)C(=O)NCC(=O)N[C@@H](CO)C(N)=O)NC(=O)[C@H](CC(C)C)NC(=O)[C@H](CC(C)C)NC(=O)[C@H](CCC(=O)O)NC1=O [NYAD-34] (H-ISF[S5]ELL[S5]YYGRSGS-NH2; staple (Z) 4-8; N-terminus and C-terminus assumed)
Key: 12.7 µM

Exercise: What does the data say about its IC50? Entry: CC[C@H](C)[C@H](N)C(=O)N[C@@H](CO)C(=O)N[C@@H](Cc1ccccc1)C(=O)N[C@]1(C)CCCCCC/C=C\CCC[C@@](C)(C(=O)N[C@@H](CCCNC(=N)N)C(N)=O)NC(=O)[C@H](Cc2ccc(O)cc2)NC(=O)[C@H](Cc2ccc(O)cc2)NC(=O)[C@H](CCC(N)=O)NC(=O)[C@H](CC(C)C)NC(=O)[C@H](Cc2c[nH]c3ccccc23)NC(=O)[C@H](CCC(=O)O)NC1=O [NYAD-33] (H-ISF[R8]EWLQYY[S5]R-NH2; staple (Z) 4-11; N-terminus and C-terminus assumed)
Key: 3.37 µM

All figures here come from patent US8937154B2.
